# Tested on: KM12 colon
# method.notes: NCI tumour cell line growth inhibition, 48 h
Consider the following compounds; for each one, report its TGI.

What measured TGI is associated with CCSCCCC(=O)O on KM12 colon?
> 100 µM

What measured TGI is associated with CCN1C/C(=C\c2ccc(Cl)cc2)c2[nH]c(=O)c(C#N)c(-c3ccc(Cl)cc3)c2C1 on KM12 colon?
> 100 µM

What measured TGI is associated with C[C@]12CC[C@H](O)CC1=CC[C@@H]1[C@@H]2CC[C@]2(C)NC(=O)/C(=C\c3ccccc3)C[C@@H]12 on KM12 colon?
30.3 µM

What measured TGI is associated with CCOC(=O)/C(=C\c1c(C)[nH]c2ccccc12)P(=O)(OCC)OCC on KM12 colon?
> 100 µM

What measured TGI is associated with Cn1c(=O)[nH]c2c(c1=O)C(=O)CN2 on KM12 colon?
> 100 µM

What measured TGI is associated with O=c1[nH]c2ccccc2n1C1CCN(CCOc2ccccc2)CC1 on KM12 colon?
> 100 µM

----------
# System: SK-OV-3 ovarian
# method.notes: NCI tumour cell line growth inhibition, 48 h
metric: TGI

# input compound: C=CCC1C(=O)CC2(C)C(CC=C)C(=O)CC12C (stereo not drawn) ; wanted: its TGI
> 100 µM

# input compound: COc1ccc(-c2nnc(Nc3nc(O)c(C4=c5cc(Br)ccc5=NC4=O)s3)o2)cc1 ; wanted: its TGI
> 100 µM

# input compound: CCC(C(=O)[C@@H](C)[C@@H](O)[C@H](C)[C@@H]1O[C@@H]([C@@H](CC)C(=O)ONC(=O)c2ccccc2)CC[C@@H]1C)[C@H]1O[C@]2(C=CC(=O)[C@]3(CC[C@@](C)([C@H]4CC[C@](O)(CC)[C@H](C)O4)O3)O2)[C@H](C)C[C@@H]1C (stereo partly drawn) ; wanted: its TGI
10.1 µM

# input compound: C[Si](C)(C)/C=C/CN1C(=O)CCC1=O ; wanted: its TGI
> 100 µM

# input compound: Cn1c(=O)[nH]c2c(c1=O)C(=O)CN2 ; wanted: its TGI
> 100 µM

# input compound: COc1cccc(-c2nn(-c3ccccc3)cc2-c2ccnc(NCCCNS(=O)(=O)c3ccc(C(F)(F)F)cc3)c2)c1 ; wanted: its TGI
> 100 µM

# input compound: NC(=O)c1ncn2c(=O)n(CCCl)nnc12 ; wanted: its TGI
130 µM

# input compound: O=c1[nH]c(=O)n(C2CC(O)C(COP(=O)(OCC(Cl)(Cl)Cl)OCC(Cl)(Cl)Cl)O2)cc1F (stereo not drawn) ; wanted: its TGI
> 100 µM

----------
Consider the following compounds; for each one, report its GI50.
# Test system: SK-MEL-28 melanoma
# method.notes: NCI tumour cell line growth inhibition, 48 h

What measured GI50 is associated with O=C(CCl)Nc1ccc(Cc2ccc(NC(=O)CCl)cc2)cc1 on SK-MEL-28 melanoma?
2150 nM

What measured GI50 is associated with C(=C\c1ccc(OCC2CO2)cc1)/C1=NCOC1 (stereo not given) on SK-MEL-28 melanoma?
6300 nM

What measured GI50 is associated with CCCCC[C@H]1C/C=C2/C(=O)C(Cl)=C[C@@H]2C/C=C\CCCC(=O)O1 on SK-MEL-28 melanoma?
472 nM

What measured GI50 is associated with CCOC(=O)c1cc(C(=O)c2cc(OC)c(OC)c(OC)c2)n2ccc(-c3cc[n+](CC(=O)c4cc(OC)c(OC)c(OC)c4)cc3)cc12 on SK-MEL-28 melanoma?
1750 nM

What measured GI50 is associated with CN1/C(=C/C=C/c2n(Cc3ccc4ccccc4c3)c(Cl)c(Cl)[n+]2Cc2ccc3ccccc3c2)Oc2ccccc21 on SK-MEL-28 melanoma?
505 nM

----------
Consider the following compounds; for each one, report its TGI.
# Test system: CAKI-1 renal
# method.notes: NCI tumour cell line growth inhibition, 48 h

# input compound: Nc1no[n+]([O-])c1-c1nnc2c(n1)-c1ccccc1C2=O ; wanted: its TGI
6.67 µM

# input compound: CNC(=O)NCCN1N=C(C)/C(=C\c2ccccc2)CC1=O ; wanted: its TGI
> 100 µM

# input compound: O=C(O)c1cc(Cl)cc(Cc2cc(Cl)cc(C(=O)O)c2O)c1O ; wanted: its TGI
> 100 µM

# input compound: COc1cc(/C=N/n2c(C)n[nH]c2=O)cc(OC)c1OC ; wanted: its TGI
> 100 µM

# input compound: C/C(=N\NC(=S)N1CCN(c2ccccn2)CC1)c1cccc2cccnc12 ; wanted: its TGI
> 100 µM

# input compound: COC(=O)/C(C#N)=C/c1cc(C(C)(C)C)c(O)c(C(C)(C)C)c1 ; wanted: its TGI
> 27.4 µM

----------
# Test system: SK-MEL-2 melanoma
# method.notes: NCI tumour cell line growth inhibition, 48 h
Consider the following compounds; for each one, report its TGI.
Answer format: numeric, µM implied, no suffix.

# input compound: COc1ccc(NC(/C(C(=O)C(=O)/C=C(\O)c2ccccc2)=C(\O)c2ccccc2)c2ccc(OC)cc2)cc1 (stereo unspecified) ; wanted: its TGI
89

# input compound: O=c1c2ccccc2nc(N/N=C/c2ccc(Cl)cc2)n1-c1ccccc1 ; wanted: its TGI
77.2

# input compound: Nc1cc(N)c2nc(-c3ccccc3)c(NCc3ccc(Cl)c(Cl)c3)nc2c1 ; wanted: its TGI
4.26

# input compound: O=C(CCl)Nc1ccc(Cc2ccc(NC(=O)CCl)cc2)cc1 ; wanted: its TGI
7.54

# input compound: Cc1ccc2c(c1)CC1(C2)Cc2ccc(C)cc2C1=O (stereo unspecified) ; wanted: its TGI
47.1

# input compound: CC(=O)OC(C)c1cc2c(s1)C(=O)c1ccsc1C2=O (stereo unspecified) ; wanted: its TGI
0.927

----------
# Test system: HS 578T breast
# method.notes: NCI tumour cell line growth inhibition, 48 h; in the data active = GI50 below about 0.43 µM; inactive = the rest
Response enum: active, inactive

I would be grateful if you could indicate the recorded call for CC(=O)c1ccc(Oc2c3ccccc3nc3occc23)cc1 .
inactive

I would be grateful if you could indicate the recorded call for OCC1OC(n2cnc3c(NCc4ccco4)ncnc32)C(O)C1O (centres undefined) .
inactive

I would be grateful if you could indicate the recorded call for Cc1cc(OCc2nn(CN3CCN(C)CC3)c(=S)n2/N=C/c2ccc(F)cc2)ccc1Cl .
inactive

I would be grateful if you could indicate the recorded call for C/C=C(\C)C(=O)O[C@@H]1C=CC(=O)O[C@H]1CNC(=O)[C@H](C)O .
inactive

I would be grateful if you could indicate the recorded call for CCC(=C(c1ccc(OCCN2CCCC2)cc1)c1ccc(OCCN2CCCC2)cc1)c1ccc(Cl)cc1 .
inactive

I would be grateful if you could indicate the recorded call for CC(=O)/C=C/c1ccc(N(CCO)Cc2ccc(C(C)(C)C)cc2)cc1 .
inactive

I would be grateful if you could indicate the recorded call for CC(C)(C)OC(=O)N1Cc2cc3ccccc3nc2C1CO (centres undefined) .
inactive

I would be grateful if you could indicate the recorded call for CCN(CC)CCCNc1cc(OC)c(OC)c2cccnc12 .
inactive

I would be grateful if you could indicate the recorded call for C1=C\CCCCN2CC[C@H]3[C@H](CCCC/C=C\CCCN4C[C@@H](CCCCC/1)C[C@@H]3C4)C2 .
inactive

I would be grateful if you could indicate the recorded call for C=CCN1C(=O)[C@]2(SC1=S)[C@H](c1cccc(Cl)c1)CN(C)[C@]21C(=O)NC2C=CC(Cl)=C[C@H]21 (some centres undefined) .
inactive

I would be grateful if you could indicate the recorded call for CC[Si](CC)(CC)OC1[C@@H](O[Si](CC)(CC)CC)[C@@H](CNC(=O)NC)O[C@H]1n1cnc2c(NC(=O)Nc3ccccc3)ncnc21 (some centres undefined) .
inactive

I would be grateful if you could indicate the recorded call for CC(=N\O)/C(C)=N/O.CC(=N\O)/C(C)=N/O.[Fe].[NH2-].c1c[nH]cn1 .
inactive

I would be grateful if you could indicate the recorded call for O=C(COc1cccc(/C=C2\Oc3ccc4ccccc4c3C2=O)c1)c1ccc([N+](=O)[O-])cc1 .
inactive

I would be grateful if you could indicate the recorded call for O=C(CC1Sc2ccccc2NC1=O)NNc1ccc(F)cc1 (centres undefined) .
inactive

I would be grateful if you could indicate the recorded call for Cn1cc(-c2nc(-c3cn(C)c4ncccc34)cs2)c2ccccc21 .
inactive

I would be grateful if you could indicate the recorded call for COC(=O)[C@H](CCCCNC(=O)OCc1ccccc1)NC(=O)[C@@H](NC(=O)Nc1cc(C(F)(F)F)cc(C(F)(F)F)c1)C(C)C .
inactive

I would be grateful if you could indicate the recorded call for CCOC(=O)c1cc2c(n1Cc1cc(OC)cc(OC)c1)-c1oncc1CC2 .
active

I would be grateful if you could indicate the recorded call for C[C@@H](Oc1cc(-c2cnn(C3CCNCC3)c2)cnc1N)c1c(Cl)cc(F)cc1Cl .
inactive

I would be grateful if you could indicate the recorded call for COc1cc(NCCC2CCCCN2)c2ncccc2c1OC (centres undefined) .
inactive
